Tested on: nictitating-membrane
Protocol notes: Adrenaline stimulated nictitating-membrane of anesthetized cats (peripheral vasodilation)
Type: in vivo
Stated conditions: 0.5 mg/kg i.v., anesthetized cats, 0.01 mg Adrenaline i.v.
# change in adrenaline-induced nictitating-membrane contraction values compiled below
// units = %; emit number, no label

A selection of reference data follows.
Cc1cc(OCCN(C)C)c(C(C)C)cc1OC(=O)OC(C)C [Compound 1]; 100
CC(=O)Oc1cc(C(C)C)c(OCCN(C)C)cc1C [Compound A, reference compound]; 0

Now for the compound whose change in adrenaline-induced nictitating-membrane contraction we want.
Query: I am curious: what change in adrenaline-induced nictitating-membrane contraction value has been reported for CCCCCCCC(=O)Oc1cc(C(C)C)c(OCCN(C)C)cc1C [Compound 3] ?
Response: 80
